target: Thrombin, from Human Plasma (Homo sapiens, UniProt P00734); assay: Enzymatic assay, thrombin
Where a SMILES comes first, the peptide text is derived from it.
Attribute: Thrombin at 100 μM %
Give the number; % is assumed, so skip it.

Molecule	Measured Number
CC[C@H](C)[C@@H]1NC(=O)[C@@H]2CCCN2C(=O)[C@@H]2CCCN2C(=O)[C@H](CC(=O)O)NC(=O)[C@H](CO)NC(=O)[C@H](CCCCN)NC(=O)[C@H]([C@@H](C)O)NC(=O)[C@@H]2CSSC[C@H](NC1=O)C(=O)N[C@@H](Cc1ccc(O)cc1)C(=O)N1CCC[C@@H]1C(=O)N1CCC[C@H]1C(=O)N[C@@H](Cc1ccc(O)cc1)C(=O)N2 [Ex. 26] (HELM PEPTIDE1{Y.C.T.K.S.D.P.P.I.C.Y.[dP].P}$PEPTIDE1,PEPTIDE1,2:R3-10:R3|PEPTIDE1,PEPTIDE1,1:R1-13:R2$$$V2.0)	3

For the molecule CCCC[C@@H]1NC(=O)[C@H](CCC(=O)O)NC(=O)[C@@H](CCCCN)NC(=O)[C@H](Cc2ccc(O)cc2)NC(=O)[C@@H]2CSSC[C@H](NC1=O)C(=O)N[C@@H]([C@@H](C)O)C(=O)N[C@@H](C)C(=O)N[C@@H](CO)C(=O)N[C@@H]([C@@H](C)CC)C(=O)N1CCC[C@H]1C(=O)N1CCC[C@H]1C(=O)N[C@@H](CCC(N)=O)C(=O)N2 [Ex. 127] (HELM PEPTIDE1{[Nle].C.T.A.S.I.P.P.Q.C.Y.[dK].E}$PEPTIDE1,PEPTIDE1,2:R3-10:R3|PEPTIDE1,PEPTIDE1,1:R1-13:R2$$$V2.0) , what Thrombin at 100 μM % is on record? 3.7

###

Target: CathepsinG, from human neutrophils (Homo sapiens)
Sequence (P08311 21-244): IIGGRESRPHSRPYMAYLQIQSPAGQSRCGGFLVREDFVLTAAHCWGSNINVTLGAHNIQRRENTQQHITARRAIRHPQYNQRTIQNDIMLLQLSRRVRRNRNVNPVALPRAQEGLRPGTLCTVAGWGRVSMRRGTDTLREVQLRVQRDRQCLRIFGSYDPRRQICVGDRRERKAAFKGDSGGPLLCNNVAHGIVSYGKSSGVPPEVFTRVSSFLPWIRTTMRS
Assay: Enzymatic assay, cathepsin G
Conditions: Cathepsin G IC50
Where a SMILES comes first, the peptide text is derived from it.
Measured Metric: pIC50
Scale explanation: pIC50 corresponds to minus log10 of a concentration expressed in moles per litre.

For the compound CC[C@H](C)[C@@H]1NC(=O)[C@@H]2CCCN2C(=O)[C@@H]2CCCN2C(=O)[C@H](CC(=O)O)NC(=O)[C@H](CO)NC(=O)[C@H](CCCCN)NC(=O)[C@H]([C@@H](C)O)NC(=O)[C@@H]2CSSC[C@H](NC1=O)C(=O)N[C@@H](Cc1ccc(O)cc1)C(=O)N1CCC[C@@H]1C(=O)N1CCC[C@H]1C(=O)N[C@@H](C1CCCCC1)C(=O)N2 [Ex. 40] (HELM PEPTIDE1{[O=C([C@@H](N[*:1])C1CCCCC1)[*:2]].C.T.K.S.D.P.P.I.C.Y.[dP].P}$PEPTIDE1,PEPTIDE1,2:R3-10:R3|PEPTIDE1,PEPTIDE1,1:R1-13:R2$$$V2.0) , what pIC50 is on record? 7.60

Measured values drawn from patent US8658604B2 for this set.
